Data origin, for the record: patent US20210402016A1

procedure text: Biodistribution in PC-3 tumor-bearing NRG mice (Example 1)
Assay type: in vivo
assay conditions: male, NRG (NOD.Cg-Rag1tm1Mom Il2rgtm1Wjl/SzJ), mouse, intestine, iv, 1.84 MBq, total radioactivity; 60 min p.i.; read-out: Biodistribution Intestine, Mean
readout: tissue uptake at 1 h (%ID/g)
Enter your answer as a number in %ID/g; do not include the unit.

Item: CC(C)C[C@@H](CN1CCC[C@H]1C(N)=O)NC(=O)[C@H](Cc1c[nH]cn1)NC(=O)CNC(=O)[C@@H](NC(=O)[C@H](C)NC(=O)[C@H](Cc1c[nH]c2ccccc12)NC(=O)[C@H](CCC(N)=O)NC(=O)[C@@H](Cc1ccccc1)NC(=O)COCC(=O)Nc1ccc(CNC(=O)CN2CCN(CC(=O)O)CCN(CC(=O)O)CCN(CC(=O)O)CC2)cc1)C(C)C [^68Ga-ProBOMB1, metal not drawn] | tissue uptake at 1 h: 2.47

* * *

procedure text: Biodistribution in PC-3 tumor-bearing NSG mice (Example 2)
Assay type: in vivo
assay conditions: male, NSG (NOD.Cg-Prkdc^scid Il2rg^tm1Wjl/SzJ), mouse, lungs, iv, total radioactivity, 60 MIN p.i.; read-out: Biodistribution LUNGS, Mean
readout: tissue uptake at 1 h
Quick note: unit goes after the number.

Item: CC(C)C[C@@H](CN1CCC[C@H]1C(N)=O)NC(=O)[C@H](Cc1c[nH]cn1)NC(=O)CNC(=O)[C@@H](NC(=O)[C@H](C)NC(=O)[C@H](Cc1c[nH]c2ccccc12)NC(=O)[C@H](CCC(N)=O)NC(=O)[C@@H](Cc1ccccc1)NC(=O)CN1CCC(NC(=O)CN2CCN(CC(=O)O)CCN(CC(=O)O)CCN(CC(=O)O)CC2)CC1)C(C)C [^68Ga-ProBOMB2, metal not drawn] | tissue uptake at 1 h: 0.39 %ID/g

* * *

procedure text: Biodistribution in PC-3 tumor-bearing NSG mice (Example 2)
Assay type: in vivo
assay conditions: male, NSG (NOD.Cg-Prkdc^scid Il2rg^tm1Wjl/SzJ), mouse, lungs, iv, total radioactivity, 120 MIN p.i.; read-out: Biodistribution LUNGS, Mean
readout: tissue uptake at 2 h (%ID/g)
Enter your answer as a number in %ID/g; do not include the unit.

Item: CC(C)C[C@@H](CN1CCC[C@H]1C(N)=O)NC(=O)[C@H](Cc1c[nH]cn1)NC(=O)CNC(=O)[C@@H](NC(=O)[C@H](C)NC(=O)[C@H](Cc1c[nH]c2ccccc12)NC(=O)[C@H](CCC(N)=O)NC(=O)[C@@H](Cc1ccccc1)NC(=O)CN1CCC(NC(=O)CN2CCN(CC(=O)O)CCN(CC(=O)O)CCN(CC(=O)O)CC2)CC1)C(C)C [^68Ga-ProBOMB2, metal not drawn] | tissue uptake at 2 h: 0.13

* * *

procedure text: Biodistribution in PC-3 tumor-bearing NRG mice (Example 1)
Format: in vivo
assay conditions: male, NRG (NOD.Cg-Rag1tm1Mom Il2rgtm1Wjl/SzJ), mouse, liver, iv, 1.84 MBq, total radioactivity; 120 min p.i.; read-out: Biodistribution Liver, Mean
readout: tissue uptake at 2 h (%ID/g)
Enter your answer as a number in %ID/g; do not include the unit.

Item: CC(C)C[C@@H](CN1CCC[C@H]1C(N)=O)NC(=O)[C@H](Cc1c[nH]cn1)NC(=O)CNC(=O)[C@@H](NC(=O)[C@H](C)NC(=O)[C@H](Cc1c[nH]c2ccccc12)NC(=O)[C@H](CCC(N)=O)NC(=O)[C@@H](Cc1ccccc1)NC(=O)COCC(=O)Nc1ccc(CNC(=O)CN2CCN(CC(=O)O)CCN(CC(=O)O)CCN(CC(=O)O)CC2)cc1)C(C)C [^68Ga-ProBOMB1, metal not drawn] | tissue uptake at 2 h: 0.75
